Each entry below carries its reported IC50.
target: Disintegrin and metalloproteinase domain-containing protein 17 (Sus scrofa)
Sequence (O77636 whole entry, the tested form may be a part): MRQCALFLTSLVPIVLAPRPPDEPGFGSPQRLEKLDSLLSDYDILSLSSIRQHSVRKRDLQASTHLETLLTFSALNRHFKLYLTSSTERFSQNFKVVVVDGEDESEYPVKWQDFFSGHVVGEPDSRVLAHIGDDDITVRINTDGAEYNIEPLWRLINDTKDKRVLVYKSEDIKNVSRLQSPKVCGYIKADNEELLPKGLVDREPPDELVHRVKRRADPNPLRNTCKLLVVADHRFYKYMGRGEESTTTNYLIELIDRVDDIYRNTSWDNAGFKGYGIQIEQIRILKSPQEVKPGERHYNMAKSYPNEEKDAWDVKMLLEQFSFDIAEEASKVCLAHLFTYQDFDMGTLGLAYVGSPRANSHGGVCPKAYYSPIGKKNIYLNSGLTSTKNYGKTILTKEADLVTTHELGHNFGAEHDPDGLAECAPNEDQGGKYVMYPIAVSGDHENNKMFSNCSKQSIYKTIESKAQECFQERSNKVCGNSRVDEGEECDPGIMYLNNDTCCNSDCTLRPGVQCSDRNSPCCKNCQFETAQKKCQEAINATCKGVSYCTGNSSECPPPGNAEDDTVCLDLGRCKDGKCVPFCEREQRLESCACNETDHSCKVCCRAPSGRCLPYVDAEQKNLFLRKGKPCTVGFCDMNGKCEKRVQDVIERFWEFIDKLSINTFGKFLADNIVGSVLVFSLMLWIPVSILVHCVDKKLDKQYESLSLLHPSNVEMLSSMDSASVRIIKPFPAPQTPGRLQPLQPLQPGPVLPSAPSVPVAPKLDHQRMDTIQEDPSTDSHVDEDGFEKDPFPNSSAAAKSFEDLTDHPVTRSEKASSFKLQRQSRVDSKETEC

These recorded examples may help you get a feel for the data.
• O=C(NO)[C@H]1CN(C(=O)C2CC2)CC[C@@H]1C(=O)Nc1ccc(OCc2ccnc3ccccc23)cc1 = 1 nM
• Cc1cc(COc2ccc(NC(=O)[C@@H]3[C@@H](C(=O)NO)CCCN3Cc3nccs3)cc2)c2ccccc2n1 = 1 nM
• O=C(NO)[C@H]1CN(C(=O)c2ccco2)CC[C@@H]1C(=O)Nc1ccc(COc2ccnc3ccccc23)cc1 = 0.8 nM

Now, please, on to the next molecule.
Please report the measured IC50 for Cc1cc(COc2ccc(NC(=O)[C@H]3CCN(C4CCC4)C[C@@H]3C(=O)NO)cc2)c2ccccc2n1 tested on Disintegrin and metalloproteinase domain-containing protein 17 (Sus scrofa).
1.6 nM

---

species on record: Homo sapiens; assay: In vitro inhibition of TNF-alpha production was determined by using LPS-stimulated human whole blood assay (WBA); format: functional
Attribute measured: pIC50
Bear in mind: pIC50 is minus log10 of a mol/L concentration; give just that figure.

- Cc1cc(COc2ccc(NC(=O)[C@H]3NCCC[C@@H]3C(=O)NO)cc2)c2ccccc2n1: 6.92
- Cc1cc(COc2ccc(NC(=O)[C@H]3CN(Cc4nccs4)CC[C@@H]3C(=O)NO)cc2)c2ccccc2n1: 6.25
- Cc1cc(OCc2ccc(NC(=O)[C@H]3CCN(C(=O)c4ccco4)C[C@@H]3C(=O)NO)cc2)c2ccccc2n1: 5.47
- O=C(NO)[C@H]1CN(C(=O)C2CC2)CC[C@@H]1C(=O)Nc1ccc(COc2ccnc3ccccc23)cc1: 6.15
- Cc1cc(COc2ccc(NC(=O)[C@@H]3[C@@H](C(=O)NO)CCCN3C)cc2)c2ccccc2n1: 7.70

Note pIC50 for the compound shown: Cc1cc(COc2ccc(NC(=O)[C@@H]3[C@@H](C(=O)NO)CCCN3CC3CC3)cc2)c2ccccc2n1
6.40

Note pIC50 for the compound shown: Cc1cc(COc2ccc(NC(=O)[C@H]3CNCC[C@@H]3C(=O)NO)cc2)c2ccccc2n1
6.28

Note pIC50 for the compound shown: Cc1cc(COc2ccc(NC(=O)[C@H]3CCN(C(=O)C(C)C)C[C@@H]3C(=O)NO)cc2)c2ccccc2n1
6.57

Note pIC50 for the compound shown: O=C(NO)[C@H]1CN(C(=O)c2ccco2)CC[C@@H]1C(=O)Nc1ccc(COc2ccnc3ccccc23)cc1
6.15

Note pIC50 for the compound shown: Cc1cc(COc2ccc(NC(=O)[C@H]3CCN(C(C)C)C[C@@H]3C(=O)NO)cc2)c2ccccc2n1
5.92

Note pIC50 for the compound shown: CC(=O)N1CC[C@H](C(=O)Nc2ccc(COc3ccnc4ccccc34)cc2)[C@@H](C(=O)NO)C1
6.25

Note pIC50 for the compound shown: Cc1cc(COc2ccc(NC(=O)[C@H]3CN(CC4CC4)CC[C@@H]3C(=O)NO)cc2)c2ccccc2n1
6.52

Note pIC50 for the compound shown: Cc1cc(COc2ccc(NC(=O)[C@H]3CCN(C(=O)OC(C)C)C[C@@H]3C(=O)NO)cc2)c2ccccc2n1
6.68

Note pIC50 for the compound shown: Cc1cc(COc2ccc(NC(=O)[C@H]3CCN(S(C)(=O)=O)C[C@@H]3C(=O)NO)cc2)c2ccccc2n1
5.87
